Form field: Kd (one value per entry).
ASSAY_TARGET: T1, PUF4 RNA-binding domain (Saccharomyces cerevisiae, UniProt P25339 537-888)
T1 sequence: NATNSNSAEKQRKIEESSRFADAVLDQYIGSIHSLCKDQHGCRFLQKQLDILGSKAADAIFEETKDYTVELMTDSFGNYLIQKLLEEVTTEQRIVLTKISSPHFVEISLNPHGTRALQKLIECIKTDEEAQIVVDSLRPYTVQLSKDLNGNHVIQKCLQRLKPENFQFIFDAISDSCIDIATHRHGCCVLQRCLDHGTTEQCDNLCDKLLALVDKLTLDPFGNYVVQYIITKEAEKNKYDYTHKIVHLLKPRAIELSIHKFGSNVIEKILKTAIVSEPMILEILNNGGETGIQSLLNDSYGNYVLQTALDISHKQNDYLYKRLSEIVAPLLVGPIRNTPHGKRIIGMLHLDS
PROTOCOL_DESCRIPTION: Mg; RNA-MaP; 20 mM Na-HEPES pH 7.4, 30 mM KOAc, 0.75 mM MgCl2, 0.1% Tween-20, 5% glycerol, 0.1 mg/mL BSA, 2 mM DTT; 25 C; 0.0125-409.6 nM protein
EXPERIMENTAL_SETUP: tags: N-His6-TEV cleaved; C-SNAP kept, Cy3B-labelled; label: tethered on chip by stalled RNA polymerase
Give just the number in nM; leave the unit off.

# annotated cases, reported Kd shown
BINDER	UNIT_OF_MEASURE	MEAS_VALUE
UCUCUUUGUAUACCUUAUCUCUU (ssRNA) [Ie_S1_P4E.1_K4.1_C4.1_H4.1_A4.1_[+6CC]_F4.1_T4.1]	nM	8.34
Ib_S4_P4E.1_K4.1_C4.1_H4.1_A4.1_[T5G]_[A6T]_F4.1_T4.1 (ssRNA) RNA: UUUGACAACUGAUCGUUCUUUCUUGUAGUUUAUUCUUUCUCGAUCAGUUGUCUUU	nM	5.58
Ib_S4_P4E.1_K4.1_C4.1_H4.1_A4.1_[T7C]_F4.1_[A9C]_T4.1 (ssRNA) RNA: UUUGACAACUGAUCGUUCUUUCUUGUAUACUCUUCUUUCUCGAUCAGUUGUCUUU	nM	10.1
Id_ii_S2_P5E.4_K5.3_C5.2_[C-2A]_H5.3_A5.1_F5.1_T5.2_[A12G] (ssRNA) RNA: UUUGAUUAAUAUGAUAUCGUUCUUUCUAUACACUUAUUAUGUUCUUUCUCGAUAUCAUAUUAAUCUUU	nM	1310
UCUCUUCUUCCUCGUAUAUAUAUCUCUU (ssRNA) [Ie_S1_P3E.2_K3.1_C3.2_H3.1_[+1CCTC]_A3.1_F3.1_T3.2]	nM	475

[Q] Dear colleague, I am looking for the recorded Kd of the following binder: UCUCUUUGUAUAGUUCUCUU (ssRNA) [Ic_S1_P3E.1_K3.1_C3.1_H3.1_A3.1_F3.1_[T7G]_[A8T]_T3.1]
[A] 11

[Q] Dear colleague, I am looking for the recorded Kd of the following binder: UCUCUUGCUAUAUUAUUAACUCUCUU (ssRNA) [Id_ii_S1_P5E.3_K5.2_C5.2_[C-2G]_[T-1C]_H5.2_A5.1_F5.1_T5.2_[T11A]_[A12C]]
[A] 346

[Q] Dear colleague, I am looking for the recorded Kd of the following binder: UCUCUUAAUAUAUAUUAGCUCUCUU (ssRNA) [Id_ii_S1_P4E.3_K4.2_C4.2_[C-2A]_[T-1A]_H4.2_A4.1_F4.1_T4.2_[T11C]]
[A] 38.8

[Q] Dear colleague, I am looking for the recorded Kd of the following binder: ACAAACUGUAUAUCUCUCUAACAAAC (ssRNA) [Ie_S3_P4E.1_K4.1_C4.1_H4.1_A4.1_[+7CTCTC]_F4.1_T4.1]
[A] 14.6

[Q] Dear colleague, I am looking for the recorded Kd of the following binder: Ib_S2_P5E.1_K5.1_C5.1_H5.1_[G2A]_A5.1_F5.1_[A10C]_T5.1 (ssRNA) RNA: UUUGAUUAAUAUGAUAUCGUUCUUUCUUAUAUUAUUCUUCUUUCUCGAUAUCAUAUUAAUCUUU
[A] 294

[Q] Dear colleague, I am looking for the recorded Kd of the following binder: UCUCUUUGUAGUAUUCUCUU (ssRNA) [Ic_S1_P3E.1_K3.1_C3.1_H3.1_A3.1_[T5G]_[A6T]_F3.1_[T7A]_[A8T]_T3.1]
[A] 86.2

[Q] Dear colleague, I am looking for the recorded Kd of the following binder: Ie_S2_P5E.1_K5.1_C5.1_H5.1_A5.1_[+6CCTC]_F5.1_T5.1 (ssRNA) RNA: UUUGAUUAAUAUGAUAUCGUUCUUUCUUGUAUUCCUCAUUAUUCUUUCUCGAUAUCAUAUUAAUCUUU
[A] 99.6
